- experimental.system: RSV-F protein of RSV A2 virus (as carried by the live virus in the neutralisation assay) (human respiratory syncytial virus, …, UniProt P03420 26-574)
- Sequence (P03420 26-574): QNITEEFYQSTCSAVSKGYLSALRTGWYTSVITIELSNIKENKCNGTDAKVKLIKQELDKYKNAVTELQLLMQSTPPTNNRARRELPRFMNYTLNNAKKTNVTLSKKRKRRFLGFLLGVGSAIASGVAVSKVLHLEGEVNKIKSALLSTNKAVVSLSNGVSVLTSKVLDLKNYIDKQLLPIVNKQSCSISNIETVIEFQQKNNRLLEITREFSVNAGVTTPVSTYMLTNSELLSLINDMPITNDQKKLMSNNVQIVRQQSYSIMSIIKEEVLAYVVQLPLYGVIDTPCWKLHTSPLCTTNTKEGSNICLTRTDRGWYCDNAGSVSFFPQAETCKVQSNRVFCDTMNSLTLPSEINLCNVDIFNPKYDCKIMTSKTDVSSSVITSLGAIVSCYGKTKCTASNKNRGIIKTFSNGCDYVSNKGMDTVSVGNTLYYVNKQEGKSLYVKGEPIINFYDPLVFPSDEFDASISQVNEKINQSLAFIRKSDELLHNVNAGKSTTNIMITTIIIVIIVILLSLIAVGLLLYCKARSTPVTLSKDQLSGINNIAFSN
- protocol.text: cell-based or functional assay
readout: Absolute IC50, neutralizing RSV A2 (HEp-2 cells, indirect ELISA) (ng/mL)

binder	data.value
R18-11B1QH (antibody, human IgG1, kappa, V domains shown, also called chimeric antibody of R18-11B1) VH: EVQLEESGPELVKPGASVKISCKSSAQTFSGSWINWVKQRPGQGLEWIGRIFPGDGDTKYNMNFTGKATLTADKSSNTAYMHVSSLTSVDSAVYFCARYDGYYDIGYFDVWGAGTTVTVSS VL: DIVMTQTPASLAVSLGQRATISCRASASVDSYGNKFIHWYQQKPGQPPKLLISLASNLESGVPARFSGSGSRTDFTLTIDPVEADDAATYYCQQTNEDPWTFGGGTKLEIKR	101
R10-10B2QH (antibody, human IgG1, kappa, V domains shown, also called chimeric antibody of R10-10B2) VH: QVQLEESGAELVRSGASVKLSCTASGFNIKDYYIHWVKQRPEQGLEWIGWNDPENGDTEYAPKFQGKATMTADTSSNTVYLQLSSLTSEDSAVYFCKSFDSYLEYWGQGTSVTVSS VL: DIVMTQTTLSLPVNLGDQASISCRSSQSLVHTDGNTFLEWYLQRPGQSPKLLIYKVSIRFSGVPDRFSGSGSGTDFTLKISRVETEDLGVYYCFQGSHVPRTFGGGTKLEIKR	96.8
R3-39A3QH (antibody, human IgG1, kappa, V domains shown, also called chimeric antibody of R3-39A3) VH: QVKLEESGPELVKPGASVKISCKASGYAFSSSWVNWVQQRPGQGLEWIGRIYPGDGETKYSGKFRGKATLTADKSSNTVYMQVSSLTSVDSAVYFCAREGGLITSSGYYHAMDYWGQGTSVTVSS VL: DIVLTQSPPSLAVSLGQRATISCRASKSVDSYGNGFMHWYQQKPGQPPKLLIFLASNLESGVPARFSGSGSRTDFTLTIDPVEADDAASYYCQQSDEDPTFGGGTKLEIKR	5.92
